# runDescription: Plasma clearance in Beagle dog at 0.8 mg/kg, iv after 24 hrs
# Assay type: ADME, organism-based, Canis lupus familiaris
# Design: dose 0.8 mg/kg, route intravenous

smilesStructure: N#Cc1ccc([C@H]2CCCC[C@H]2O)cc1C(F)(F)F
clearance: 40 mL/min/kg

---

# measuredOn: Androgen receptor (Homo sapiens)
# Sequence (P10275 whole entry): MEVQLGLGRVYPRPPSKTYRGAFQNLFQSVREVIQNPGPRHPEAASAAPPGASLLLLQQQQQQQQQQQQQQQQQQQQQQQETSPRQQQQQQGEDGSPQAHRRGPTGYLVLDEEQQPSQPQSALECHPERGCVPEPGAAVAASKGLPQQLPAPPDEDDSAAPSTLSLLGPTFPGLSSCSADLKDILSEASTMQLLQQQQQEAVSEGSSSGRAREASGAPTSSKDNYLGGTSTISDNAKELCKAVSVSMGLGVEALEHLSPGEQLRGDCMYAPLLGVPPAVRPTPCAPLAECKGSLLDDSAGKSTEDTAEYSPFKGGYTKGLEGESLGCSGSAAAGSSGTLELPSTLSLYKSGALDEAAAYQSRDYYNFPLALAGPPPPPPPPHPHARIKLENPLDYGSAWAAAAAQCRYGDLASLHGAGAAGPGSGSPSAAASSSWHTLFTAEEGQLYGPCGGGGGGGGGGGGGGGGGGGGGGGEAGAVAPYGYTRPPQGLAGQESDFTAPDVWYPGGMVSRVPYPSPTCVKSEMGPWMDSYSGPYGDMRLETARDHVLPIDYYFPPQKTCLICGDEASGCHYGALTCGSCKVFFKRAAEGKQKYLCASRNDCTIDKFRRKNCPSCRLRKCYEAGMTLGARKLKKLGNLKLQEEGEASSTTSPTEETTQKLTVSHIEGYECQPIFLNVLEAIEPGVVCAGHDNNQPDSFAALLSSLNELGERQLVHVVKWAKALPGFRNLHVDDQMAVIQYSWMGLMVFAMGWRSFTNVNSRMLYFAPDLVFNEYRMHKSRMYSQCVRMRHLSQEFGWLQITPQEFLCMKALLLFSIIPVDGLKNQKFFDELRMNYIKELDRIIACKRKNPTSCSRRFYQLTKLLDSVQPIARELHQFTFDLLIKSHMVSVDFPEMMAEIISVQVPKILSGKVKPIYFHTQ
# runDescription: biochemical
# Description: Displacement of [3H]dihydrotestosterone from human androgen receptor expressed in Sf9 cells
pIC50: −log10 of the molar value.

molecule: N#Cc1ccc(C2CCCCC2O)cc1C(F)(F)F (racemic)
resultModifier: =
pIC50: 7.59
--
molecule: N#Cc1ccc([C@H]2CCCC[C@H]2O)cc1C(F)(F)F
resultModifier: =
pIC50: 7.43
--
molecule: COc1cc(-c2ccccc2O)ccc1C#N
resultModifier: =
pIC50: 7.43
--
molecule: N#Cc1ccc([C@@H]2CCCC[C@@H]2O)cc1C(F)(F)F
resultModifier: =
pIC50: 5.80
--
molecule: N#Cc1ccc([C@H]2CCCC[C@@H]2O)cc1C(F)(F)F
resultModifier: <
pIC50: 5.52
